Test system: PPARg:RXRa DBDmut IVT, anti-RXR (DBD mutation: RXRa K156A/R161A, NR concentration 270 nM, RXRa partner concentration 90 nM)
assayProtocol: PBM binding z-score (relative to random genomic background probes); higher = stronger binding; sequences stand for … in GC…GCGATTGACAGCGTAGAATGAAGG
Consider the reported PBM binding z-score of an entry and match it to a band in bottom (below -0.04), middle (-0.04 to below 2), top (2 or more)

Prompt line: # bin label for TCTGCTAGGTCAGTTGGGCAGCTAACGAGCTGCC
Response line: top

Prompt line: Given TCTAGTTCGTCACGGAGGTCACACACGACGGGTA , name the class its PBM binding z-score places it in.
Response line: middle

Prompt line: Class label required: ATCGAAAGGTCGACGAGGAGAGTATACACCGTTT
Response line: middle

Prompt line: GET /class?item= CCTCGGAGGACAACCGGAGGTCAGAGCTGCCAGA
Response line: bottom

Prompt line: State the band of GATACAGAGTCAGCTAGAGGCCAGAGTATGGAAA
Response line: bottom

Prompt line: Bin this entry: TTATCAAGGTGAAAGGTCGTTGATGCACGCCTTG
Response line: top

Prompt line: Exam item: assign ATCGAATGGTCGAAGGTGAGTATACCCACCCGAA to the correct category.
Response line: bottom

Prompt line: Class (by measured PBM binding z-score) for CGAACTAGGACATCCAGGACAGTGAATACATTGA
Response line: top

Prompt line: # bin lookup: classify CTCGAAAGGTCGTGCTTAGGTGAGTATACCAAAC by its PBM binding z-score
Response line: middle

Prompt line: Given CCTCGGAGGACAACAGGAGGTCAAAGCTGCCAGA , name the class its PBM binding z-score places it in.
Response line: middle

Prompt line: Band of ATCGAAAGGTCGAAGGAGAGTATACCCACCCGAA ?
Response line: middle

Prompt line: Sort into band: ACTAATTGGTCAGCTGAGGTCACACACAATTCGG
Response line: middle
